The reported measurements were obtained from the supplement of paper PMC11208160.

Assay: recombinant UMI read abundance after kanamycin selection (control-corrected) (log10(CPM+1)); higher = more efficient recombination; extreme values may be limits of the assay; sequences stand for … in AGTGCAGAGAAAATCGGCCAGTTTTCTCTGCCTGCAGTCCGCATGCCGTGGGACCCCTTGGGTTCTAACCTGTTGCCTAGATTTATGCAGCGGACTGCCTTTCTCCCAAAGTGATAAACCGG…AGGTTGGTTTCACT; site = the 11-nt donor;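 also: IS621 bridge recombinase in Escherichia coli cells against a fixed T5 target plasmid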
Returns MET if the recorded recombinant UMI read abundance (log10) is greater than or equal to 0.7, and NOT MET otherwise.

The following sequences have reported results that may help.
ACGAAGCCATGGACCGGTTTTCCCGGTAATCCGTATTTGGG (site ACGAAGCCTCC)
NOT MET
TGGGCAACATGGACCGGTTTTCCCGGTAATCCGTATTTGTG (site TGGGCAACTCA)
NOT MET
CTTGTTCCATGGACCGGTTTTCCCGGTAATCCGTATTTGGT (site CTTGTTCCTAC)
NOT MET
CGATGGACATGGACCGGTTTTCCCGGTAATCCGTATTTGTT (site CGATCGACTAA)
NOT MET
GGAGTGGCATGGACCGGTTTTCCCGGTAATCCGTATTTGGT (site CGAGTGGCTAC)
NOT MET
ATGTAGTCATGGACCGGTTTTCCCGGTAATCCGTATTTGGT (site ATGTAGTCTAC)
MET

With those in mind, consider the next sequence.
Input line: Record TCCAAGTCATGGACCGGTTTTCCCGGTAATCCGTATTTGCC (site TCCAAGTCTGG) ; criterion: recombinant UMI read abundance (log10) no lower than 0.7. Met?
Output line: NOT MET
